# Experiment Notes: Cell viability in pre-screen (Table 1)
# Type: cell-based
# Conditions Used: 10 uM
Measured Quantity: % Viability (%)
Give your result in % as a bare value.

COc1ccc(O[C@H]2O[C@@H]3COC(c4ccccc4)O[C@H]3[C@H](O[C@@H]3O[C@H](COC(=O)CCl)[C@@H](OC(C)=O)[C@H](OC(C)=O)[C@H]3OC(C)=O)[C@H]2NC(=O)C(Cl)(Cl)Cl)cc1 (some centres unmarked) = 88
CC(=O)CCC(=O)OC[C@H]1O[C@@H](O[C@H]2[C@@H]3OC(c4ccccc4)OC[C@H]3OC(O)[C@@H]2NC(=O)C(Cl)(Cl)Cl)[C@H](OC(C)=O)[C@@H](OC(C)=O)[C@@H]1OC(=O)CCl (some centres unmarked) = 90
COc1ccc(O[C@H]2O[C@@H]3COC(c4ccccc4)O[C@H]3[C@H](O[C@@H]3O[C@H](CO)[C@@H](OC(=O)CCl)[C@H](OC(C)=O)[C@H]3OC(C)=O)[C@H]2NC(=O)C(Cl)(Cl)Cl)cc1 (some centres unmarked) = 57
COc1ccc(O[C@H]2O[C@@H]3COC(c4ccccc4)O[C@H]3[C@H](O[C@@H]3O[C@H](CO)[C@@H](OC(C)=O)[C@H](OC(C)=O)[C@H]3OC(C)=O)[C@H]2NC(=O)C(Cl)(Cl)Cl)cc1 (some centres unmarked) = 92

Moving on to another compound below.
stdin: Give the value of % Viability reported for the following: COc1ccc(O[C@H]2O[C@@H]3COC(c4ccccc4)O[C@H]3[C@H](O[C@@H]3O[C@H](CO)[C@@H](O)[C@H](OC(C)=O)[C@H]3OC(C)=O)[C@H]2NC(=O)C(Cl)(Cl)Cl)cc1 (some centres unmarked)
stdout: 60

Recorded values, source patent US20090215710A1.
